target of assay: USP19 (UniProt O94966)
Sequence (O94966 whole entry, the tested form may be a part): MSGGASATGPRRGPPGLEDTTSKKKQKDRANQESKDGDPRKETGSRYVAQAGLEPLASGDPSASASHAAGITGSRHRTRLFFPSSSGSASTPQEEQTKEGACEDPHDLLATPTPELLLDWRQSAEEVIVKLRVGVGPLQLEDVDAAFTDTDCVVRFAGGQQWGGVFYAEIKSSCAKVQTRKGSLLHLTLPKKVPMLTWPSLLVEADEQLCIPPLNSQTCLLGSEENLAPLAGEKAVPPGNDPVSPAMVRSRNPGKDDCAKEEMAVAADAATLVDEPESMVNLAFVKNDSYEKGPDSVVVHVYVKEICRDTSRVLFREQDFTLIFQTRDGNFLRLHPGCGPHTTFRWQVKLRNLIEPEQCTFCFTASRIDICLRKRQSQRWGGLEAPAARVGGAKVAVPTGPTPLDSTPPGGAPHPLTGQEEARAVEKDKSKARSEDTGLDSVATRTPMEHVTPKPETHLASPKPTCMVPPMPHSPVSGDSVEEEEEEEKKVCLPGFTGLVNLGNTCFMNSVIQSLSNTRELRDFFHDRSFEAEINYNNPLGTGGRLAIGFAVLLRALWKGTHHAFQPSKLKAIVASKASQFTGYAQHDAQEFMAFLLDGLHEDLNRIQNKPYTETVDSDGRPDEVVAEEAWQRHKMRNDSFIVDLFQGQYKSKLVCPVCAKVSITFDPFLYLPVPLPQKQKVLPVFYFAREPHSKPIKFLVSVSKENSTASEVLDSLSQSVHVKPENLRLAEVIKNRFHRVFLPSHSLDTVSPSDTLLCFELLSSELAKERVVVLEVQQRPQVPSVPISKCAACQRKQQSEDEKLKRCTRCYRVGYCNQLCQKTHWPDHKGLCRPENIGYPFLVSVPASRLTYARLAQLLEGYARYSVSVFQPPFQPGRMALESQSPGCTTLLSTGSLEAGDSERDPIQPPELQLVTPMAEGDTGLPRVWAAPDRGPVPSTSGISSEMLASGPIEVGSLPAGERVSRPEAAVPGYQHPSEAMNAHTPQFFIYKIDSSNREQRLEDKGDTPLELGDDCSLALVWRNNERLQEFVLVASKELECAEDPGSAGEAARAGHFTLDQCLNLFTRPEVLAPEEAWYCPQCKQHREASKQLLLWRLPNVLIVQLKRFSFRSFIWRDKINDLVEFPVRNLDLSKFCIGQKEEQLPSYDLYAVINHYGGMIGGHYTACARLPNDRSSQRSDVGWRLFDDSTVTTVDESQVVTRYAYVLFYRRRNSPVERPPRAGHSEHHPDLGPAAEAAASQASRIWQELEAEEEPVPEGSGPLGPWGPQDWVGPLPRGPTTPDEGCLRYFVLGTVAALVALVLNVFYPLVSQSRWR
protocol: log2 ratio of Biotin-Ahx-Ub-VS probe labelling (fragment/DMSO); higher = less target engagement (more negative = stronger competition), active = hit call of the paper (q ≤ 0.05, log2 ratio ≤ -1)
test context: compound concentration: 200 uM; treatment time: 3 h
Please go through the items and note down their log2 ratio of Biotin-Ahx-Ub-VS probe labelling.
Please respond with just the number, no unit label.

Sure, the documented log2 ratio of Biotin-Ahx-Ub-VS probe labelling for O=C(CCl)NCCC1COCCO1 (configuration not stated) is -0.207

Sure, the documented log2 ratio of Biotin-Ahx-Ub-VS probe labelling for CC1CCc2onc(CNC(=O)CCl)c2C1 (configuration not stated) is 0.0516

Sure, the documented log2 ratio of Biotin-Ahx-Ub-VS probe labelling for O=C(CCl)N1CCc2sccc2C1 is -1.19

Sure, the documented log2 ratio of Biotin-Ahx-Ub-VS probe labelling for Cc1ccc(-c2nnc(C)[nH]2)c(NC(=O)CCl)c1 is 0.0362

Sure, the documented log2 ratio of Biotin-Ahx-Ub-VS probe labelling for Cl.O=C(CN1CCN(C(=O)CCl)CC1)Nc1ccc(F)cc1 is -0.172

Sure, the documented log2 ratio of Biotin-Ahx-Ub-VS probe labelling for O=C(CCl)N1CCc2ccccc2C(O)C1 (configuration not stated) is -0.315

Sure, the documented log2 ratio of Biotin-Ahx-Ub-VS probe labelling for CC1(NC(=O)CCl)CCS(=O)(=O)C1 (configuration not stated) is -0.59

Sure, the documented log2 ratio of Biotin-Ahx-Ub-VS probe labelling for O=C(CCl)NCc1ccc2c(c1)OCO2 is -0.272

Sure, the documented log2 ratio of Biotin-Ahx-Ub-VS probe labelling for O=C(CCl)Nc1ccc(F)cc1Cl is -0.2

Sure, the documented log2 ratio of Biotin-Ahx-Ub-VS probe labelling for CNC(=O)Cn1cc(NC(=O)CCl)cn1 is -0.0937

Sure, the documented log2 ratio of Biotin-Ahx-Ub-VS probe labelling for O=C(CCl)NCC1(c2ccccc2)CC1 is -0.058

Sure, the documented log2 ratio of Biotin-Ahx-Ub-VS probe labelling for O=C(CCl)NC1CCS(=O)(=O)c2ccccc21 (configuration not stated) is -0.237

Sure, the documented log2 ratio of Biotin-Ahx-Ub-VS probe labelling for O=C(CCl)N1CCCC2CCCCC21 (configuration not stated) is -0.188

Sure, the documented log2 ratio of Biotin-Ahx-Ub-VS probe labelling for C[C@H]1CN(C(=O)CCl)CCN1C(=O)c1cnn(C)c1.Cl is -0.18

Sure, the documented log2 ratio of Biotin-Ahx-Ub-VS probe labelling for O=C(CCl)Nc1cccc2ncccc12 is -0.114

Sure, the documented log2 ratio of Biotin-Ahx-Ub-VS probe labelling for O=C(CCl)Nc1ccc(F)cc1F is -0.101

Sure, the documented log2 ratio of Biotin-Ahx-Ub-VS probe labelling for Cl.O=C(CCl)N1CCCC(c2ncc[nH]2)C1 (configuration not stated) is -0.0532

Sure, the documented log2 ratio of Biotin-Ahx-Ub-VS probe labelling for Cc1nc(CC2CCN(C(=O)CCl)CC2)no1 is -0.747

Sure, the documented log2 ratio of Biotin-Ahx-Ub-VS probe labelling for O=C(CCl)N(Cc1ccsc1)C1CC1 is -0.0676

Sure, the documented log2 ratio of Biotin-Ahx-Ub-VS probe labelling for Cc1ccc(CNC(=O)CCl)nc1C.Cl is -0.0635

Sure, the documented log2 ratio of Biotin-Ahx-Ub-VS probe labelling for O=C(CCl)N1CCC(c2nc3ccccc3o2)CC1 is -0.537

Sure, the documented log2 ratio of Biotin-Ahx-Ub-VS probe labelling for O=C(CCl)N1CCCCCC1c1ncon1 (configuration not stated) is -0.0696

Sure, the documented log2 ratio of Biotin-Ahx-Ub-VS probe labelling for Cc1cccc(N2CCC(NC(=O)CCl)C2=O)c1 (configuration not stated) is -0.0964

Sure, the documented log2 ratio of Biotin-Ahx-Ub-VS probe labelling for Cc1nc(-c2cccc(NC(=O)CCl)c2)cs1 is -0.375

Sure, the documented log2 ratio of Biotin-Ahx-Ub-VS probe labelling for CNC(=O)C1(NC(=O)CCl)CCCCC1 is 0.162

Sure, the documented log2 ratio of Biotin-Ahx-Ub-VS probe labelling for O=C(CCl)Nc1nc(-c2cccs2)cs1 is -0.517

Sure, the documented log2 ratio of Biotin-Ahx-Ub-VS probe labelling for Cc1ccc(N(CCC#N)C(=O)CCl)cc1C is -0.203

Sure, the documented log2 ratio of Biotin-Ahx-Ub-VS probe labelling for Cl.O=C(CCl)N1CCN(Cc2ccccc2)CC1 is -0.21

Sure, the documented log2 ratio of Biotin-Ahx-Ub-VS probe labelling for O=C(CCl)Nc1cc2c(cc1Cl)OCCO2 is 0.00638

Sure, the documented log2 ratio of Biotin-Ahx-Ub-VS probe labelling for Cl.O=C(CCl)N1CCC(Cc2nccs2)C1 (configuration not stated) is -0.32

Sure, the documented log2 ratio of Biotin-Ahx-Ub-VS probe labelling for CN1C(=O)c2ccc(NC(=O)CCl)cc2C1=O is -0.358

Sure, the documented log2 ratio of Biotin-Ahx-Ub-VS probe labelling for NC(=O)C1CCCCN1C(=O)CCl (configuration not stated) is -0.231

Sure, the documented log2 ratio of Biotin-Ahx-Ub-VS probe labelling for O=C(CCl)N1CCC(=C(F)CO)C1 is -0.052

Sure, the documented log2 ratio of Biotin-Ahx-Ub-VS probe labelling for O=C(CCl)NC1CCC2(CC1)OCCO2 is -0.189

Sure, the documented log2 ratio of Biotin-Ahx-Ub-VS probe labelling for Cc1nnc(C(NC(=O)CCl)c2ccccc2)n1C (configuration not stated) is 0.626

Sure, the documented log2 ratio of Biotin-Ahx-Ub-VS probe labelling for COc1cc(Cl)c(C)cc1NC(=O)CCl is -0.357

Sure, the documented log2 ratio of Biotin-Ahx-Ub-VS probe labelling for Cc1c(NC(=O)CCl)c(=O)n(-c2ccccc2)n1C is -0.181

Sure, the documented log2 ratio of Biotin-Ahx-Ub-VS probe labelling for O=C(CCl)N1CC2(CCOCC2)C1 is -0.144

Sure, the documented log2 ratio of Biotin-Ahx-Ub-VS probe labelling for O=C(CCl)Nc1ccc(N2CCCC2=O)cc1 is -0.0288

Sure, the documented log2 ratio of Biotin-Ahx-Ub-VS probe labelling for O=C(CCl)N1CCN(c2nc3ccccc3o2)CC1 is -0.702

Sure, the documented log2 ratio of Biotin-Ahx-Ub-VS probe labelling for O=C(CCl)N1CCC2(CCC(O)CC2)CC1 is 0.0572

Sure, the documented log2 ratio of Biotin-Ahx-Ub-VS probe labelling for Cc1ccc(C)c(NC(=O)CCl)c1 is -0.203

Sure, the documented log2 ratio of Biotin-Ahx-Ub-VS probe labelling for CCc1c[nH]c(CNC(=O)CCl)n1.Cl is -0.279

Sure, the documented log2 ratio of Biotin-Ahx-Ub-VS probe labelling for CS(=O)(=O)c1ccc(NC(=O)CCl)cc1 is -0.223

Sure, the documented log2 ratio of Biotin-Ahx-Ub-VS probe labelling for Cc1cccc(C)c1NC(=O)CCl is -0.0774

Sure, the documented log2 ratio of Biotin-Ahx-Ub-VS probe labelling for O=C(CCl)N1CCC(C(=O)N2CCCC2)CC1 is -0.228

Sure, the documented log2 ratio of Biotin-Ahx-Ub-VS probe labelling for CC1CN(c2ccc(NC(=O)CCl)cc2)CC(C)O1 (configuration not stated) is -0.126

Sure, the documented log2 ratio of Biotin-Ahx-Ub-VS probe labelling for O=C(CCl)N1CCC(c2ccn[nH]2)C1 (configuration not stated) is -0.276

Sure, the documented log2 ratio of Biotin-Ahx-Ub-VS probe labelling for Cl.Cn1cnc2cc(CNC(=O)CCl)ccc21 is -0.154

Sure, the documented log2 ratio of Biotin-Ahx-Ub-VS probe labelling for O=C(CCl)N1CCc2nc[nH]c2C1c1ccc(Cl)cc1 (configuration not stated) is -0.509

Sure, the documented log2 ratio of Biotin-Ahx-Ub-VS probe labelling for CCN(C(=O)CCl)C1CCCCC1 is 0.1

Sure, the documented log2 ratio of Biotin-Ahx-Ub-VS probe labelling for Cc1cnc2[nH]cc(CCNC(=O)CCl)c2c1 is -0.044
